Read-out: Human Leukocyte Antigen - DR isotype (HLADR), HLA-DRA (gene 3122)
Experiment: BSK_CASM3C_HLADR: BioMAP Diversity Plus: CASM3C Assay for Human Leukocyte Antigen - DR isotype (HLADR) Biomarker Activity (AID 2283043);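 also: cell-surface HLA-DR protein level quantified by ELISA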
Settings: primary human coronary artery smooth muscle cells; actives raise or lower the signal
Active and inactive are the calls of the source. The calls were made as follows: active = hit-call score of the fitted dose curve at least 0.9, where 1 is the maximum; inactive = score below 0.9.
assay_metric: outcome

Nc1ccc(Nc2ccccc2)cc1; inactive
CN(C)c1ccc(N=NS(=O)(=O)O)cc1; inactive
COCCOCCOCCOC; inactive

----------
Read-out: ABC Transporter (ABCC3), ABCC3 (gene 8714)
Assay: LTEA_HepaRG_ABCC3: Life Technologies and Expression Analysis (LTEA) Assay for ABC Transporter (ABCC3) using HepaRG (AID 2283462)
Settings: mRNA level, 48 h; actives raise or lower the signal
Activity calls are given as the source filed them. The calls were made as follows: active = hit-call score of the fitted dose curve at least 0.9, where 1 is the maximum; inactive = score below 0.9.
Write down one outcome, taken from YES (active), NO (inactive)

Below, 5 compounds whose answers are already recorded.
O=c1[nH]c2ccc(S(=O)CCN3CCC(Cc4ccc(F)cc4)CC3)cc2o1 (centres undefined); NO
CC(C)(O)c1coc(S(=O)(=O)NC(=O)Nc2c3c(cc4c2CCC4)CCC3)c1; NO
CCNc1ccccc1; NO
C1=CCCC=CCCC=CCC1; NO
O=C1CCC(N2C(=O)c3ccccc3C2=O)C(=O)N1 (centres undefined); NO

**Query** What did this assay record as the result for CCN(C(=O)c1cc(C)cc(OC[C@H](C)Nc2ccncc2)c1)C(C)C ?
**Result** YES

**Query** What did this assay record as the result for O=c1n(CC2CO2)c(=O)n(CC2CO2)c(=O)n1CC1CO1 (centres undefined) ?
**Result** NO

**Query** What did this assay record as the result for O=C(O)c1cccc(N(Cc2cccnc2)c2ccc(OC(F)F)c(OC(F)F)c2)c1 ?
**Result** NO

**Query** What did this assay record as the result for O=P(OC(CCl)CCl)(OC(CCl)CCl)OC(CCl)CCl ?
**Result** NO

----------
Read-out: TIMP1, TIMP1 (gene 7076)
Assay: LTEA_HepaRG_TIMP1: Life Technologies and Expression Analysis (LTEA) Assay for TIMP1 using HepaRG (AID 2283534);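 as to outcome: TaqMan qRT-PCR signal normalized to ACTB GAPDH and POLR2A housekeeping genes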
Conditions: mRNA level, 48 h; actives raise or lower the signal
Calls of active or inactive are those of the source. The calls were made as follows: active = hit-call score of the fitted dose curve at least 0.9, where 1 is the maximum; inactive = score below 0.9.
Write down one outcome, taken from 1 for active, 0 for inactive

CCCCC(CC)COC(=O)c1ccc(C(=O)OCC(CC)CCCC)cc1 (centres undefined); 0
CCc1cc(SCc2sc(-c3ccc(C(F)(F)F)cc3)nc2CN2CCN(c3ccc(OC)cc3)CC2)ccc1OCC(=O)O; 1
CN(C)c1ccc(Cc2ccc(N(C)C)cc2)cc1; 0
C1=CCCC=CCCC=CCC1; 0
CC[C@H]1CC[C@H](NCc2cc3c(cc2OC)[C@H]2C[C@H]2C(=O)N3C)[C@H](c2ccccc2)N1; 0
O=C(NS(=O)(=O)/C=C/c1ccccc1)c1ccc(F)cc1Cl; 0
NC(=O)NO; 0
Cc1ccc(O)cc1; 0
CC(C)=CCC/C(C)=C\CO; 0
CC1(C)C(=O)N(Br)C(=O)N1Br; 0

**Query** What did this assay record as the result for O=C1CCC(N2C(=O)c3ccccc3C2=O)C(=O)N1 (centres undefined) ?
**Result** 0

**Query** What did this assay record as the result for C=CCCCCCCCCC(=O)O ?
**Result** 0

**Query** What did this assay record as the result for O=c1[nH]c2ccc(S(=O)CCN3CCC(Cc4ccc(F)cc4)CC3)cc2o1 (centres undefined) ?
**Result** 0

The origin of these recorded values is PubChem BioAssay (EPA / NIEHS).
